target: Transcription intermediary factor 1-alpha (Homo sapiens) (UniProt O15164); conditions: Compound concentration 20.0 uM, Protein concentration 2.0 uM, Result type QC Liability
Sequence (O15164 whole entry): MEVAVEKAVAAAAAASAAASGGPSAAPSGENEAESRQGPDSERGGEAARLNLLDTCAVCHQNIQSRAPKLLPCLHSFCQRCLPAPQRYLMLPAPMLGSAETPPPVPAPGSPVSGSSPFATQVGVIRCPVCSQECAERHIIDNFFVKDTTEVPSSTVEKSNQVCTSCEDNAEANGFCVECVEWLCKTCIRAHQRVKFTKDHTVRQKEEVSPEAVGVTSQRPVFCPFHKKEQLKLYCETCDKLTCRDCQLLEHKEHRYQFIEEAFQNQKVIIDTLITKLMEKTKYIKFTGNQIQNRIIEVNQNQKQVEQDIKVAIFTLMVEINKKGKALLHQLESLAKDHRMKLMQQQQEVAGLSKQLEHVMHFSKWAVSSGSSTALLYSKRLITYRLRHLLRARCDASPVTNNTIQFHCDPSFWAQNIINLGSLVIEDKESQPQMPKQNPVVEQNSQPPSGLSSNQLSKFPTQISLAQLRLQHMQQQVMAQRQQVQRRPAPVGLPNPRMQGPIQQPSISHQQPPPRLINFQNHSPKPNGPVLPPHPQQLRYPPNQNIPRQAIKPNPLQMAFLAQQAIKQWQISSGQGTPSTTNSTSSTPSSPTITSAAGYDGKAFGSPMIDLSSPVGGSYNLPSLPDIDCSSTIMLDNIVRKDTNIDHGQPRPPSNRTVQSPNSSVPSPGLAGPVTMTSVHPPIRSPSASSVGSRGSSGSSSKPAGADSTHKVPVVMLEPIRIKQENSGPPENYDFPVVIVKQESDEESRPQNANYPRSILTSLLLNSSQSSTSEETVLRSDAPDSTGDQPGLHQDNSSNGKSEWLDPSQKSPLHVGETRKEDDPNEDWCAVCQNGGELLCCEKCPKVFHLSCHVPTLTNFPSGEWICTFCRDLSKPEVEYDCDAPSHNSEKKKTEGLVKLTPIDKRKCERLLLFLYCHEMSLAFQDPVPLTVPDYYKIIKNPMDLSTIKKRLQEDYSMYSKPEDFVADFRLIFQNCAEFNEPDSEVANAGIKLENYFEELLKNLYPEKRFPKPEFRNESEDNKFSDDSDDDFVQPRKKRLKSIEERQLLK
recorded endpoint: ΔTm (°C)

{"columns": ["molecule", "system tested", "val"],
 "data": [
  ["CCC(=O)N[C@H]1CC[C@@H](C(=O)N(C)c2ccc(-c3nc4ccccc4o3)cc2)C1", "Transcription intermediary factor 1-alpha (Homo sapiens) (UniProt O15164)", 0.23],
  ["CN(c1ccc(C(F)(F)F)cc1)S(=O)(=O)c1ccc(C(=O)Nc2nc(-c3ccccn3)cs2)cc1", "Transcription intermediary factor 1-alpha (Homo sapiens) (UniProt O15164)", 18.6],
  ["CCS(=O)(=O)c1cc2cc(C[C@](O)(CC(C)(C)c3ccc(F)cc3C(N)=O)C(F)(F)F)[nH]c2cn1", "Transcription intermediary factor 1-alpha (Homo sapiens) (UniProt O15164)", 0.37],
  ["COc1c(-c2cn(C3CCC(=O)NC3=O)nn2)csc1C(=O)N1CCCC1 (stereo unspecified)", "Transcription intermediary factor 1-alpha (Homo sapiens) (UniProt O15164)", -2.25],
  ["CC(C)(C)c1cnc(CSc2cnc(NC(=O)C3CCN(CC(=O)NCCOCCOCCOCCNc4cccc5c4C(=O)N(C4CCC(=O)NC4=O)C5=O)CC3)s2)o1 (stereo unspecified)", "Transcription intermediary factor 1-alpha (Homo sapiens) (UniProt O15164)", -1.74],
  ["CCN(C)C(=O)c1ccc2c(c1)NC(=O)/C2=C(\\NC1CCN(C)CC1)c1ccccc1", "Transcription intermediary factor 1-alpha (Homo sapiens) (UniProt O15164)", 0.21],
  ["CCn1ccc(Nc2ncc3c(n2)-c2c(nn(C)c2-c2ccc(-c4cnn(C)c4)cc2Cl)CC3)n1", "Transcription intermediary factor 1-alpha (Homo sapiens) (UniProt O15164)", -2.64],
  ["Nc1ncnc2c1c(COc1cccc(Cl)c1)nn2C1CCOCC1", "Transcription intermediary factor 1-alpha (Homo sapiens) (UniProt O15164)", -2.38],
  ["O=C(Nc1cccc(Nc2nccc(Nc3cccc(C(F)(F)F)c3)n2)c1)C1CC1", "Transcription intermediary factor 1-alpha (Homo sapiens) (UniProt O15164)", 1.03],
  ["N#Cc1ccc(C#CC[C@@H](C#N)NC(=O)[C@@H]2CCCCN2)cc1F", "Transcription intermediary factor 1-alpha (Homo sapiens) (UniProt O15164)", 0.36],
  ["COc1cc2nc([C@@H]3CCCS(=O)(=O)C3)n(C)c2cc1NC(=O)c1cccc(C(C)(F)F)n1", "Transcription intermediary factor 1-alpha (Homo sapiens) (UniProt O15164)", 0.7],
  ["COc1cc(C(=O)NC2CCN(C)CC2)ccc1Nc1ncc2c(n1)N(C1CCCC1)CC(F)(F)C(=O)N2C", "Transcription intermediary factor 1-alpha (Homo sapiens) (UniProt O15164)", -2.21],
  ["Clc1cccc(Nc2nccc(NCCCN3CCOCC3)n2)c1", "Transcription intermediary factor 1-alpha (Homo sapiens) (UniProt O15164)", -3.59],
  ["CN1CCN(c2ccc(Nc3ncc4cc5n(c4n3)C3(CCCCC3)CNC5=O)nc2)CC1", "Transcription intermediary factor 1-alpha (Homo sapiens) (UniProt O15164)", -0.72],
  ["CCNC1=N[C@@H]2[C@@H](O)[C@H](O)[C@@H](CO)O[C@@H]2S1", "Transcription intermediary factor 1-alpha (Homo sapiens) (UniProt O15164)", -2.58],
  ["CC(C)(C)c1cc(NC(=O)c2csc(Nc3ccccn3)n2)no1", "Transcription intermediary factor 1-alpha (Homo sapiens) (UniProt O15164)", 1.12],
  ["CC(C)(C)c1cc(NC(=O)c2csc(Nc3ccc(Cl)cc3)n2)no1", "Transcription intermediary factor 1-alpha (Homo sapiens) (UniProt O15164)", 0.11],
  ["CCc1c(-c2ccc3[nH]ncc3c2)cnc(N)c1-c1ccc(O)cc1", "Transcription intermediary factor 1-alpha (Homo sapiens) (UniProt O15164)", -2.74],
  ["O=C(Nc1cccc(C(F)(F)F)c1)c1cccc(-n2cc(-c3ccco3)nn2)c1", "Transcription intermediary factor 1-alpha (Homo sapiens) (UniProt O15164)", -0.66],
  ["CC1(C)C[C@@H]1C(=O)N/C(=C\\CCCCSC[C@H](N)C(=O)O)C(=O)O", "Transcription intermediary factor 1-alpha (Homo sapiens) (UniProt O15164)", -0.56],
  ["COc1cc(O)c(C(CC(=O)N2C[C@H](C)C[C@H](C)C2)c2ccc3c(c2)OCO3)c(OC)c1 (stereo partly specified)", "Transcription intermediary factor 1-alpha (Homo sapiens) (UniProt O15164)", -3.38],
  ["CCS(=O)(=O)Nc1cccc(Oc2cc(F)cc(Nc3ccc(I)cc3F)c2NS(=O)(=O)C2CC2)c1", "Transcription intermediary factor 1-alpha (Homo sapiens) (UniProt O15164)", 3.45],
  ["CC(C)S(=O)(=O)c1ccccc1Nc1nc(N[C@@H]2CCCN(CCCCCCCNC(=O)COc3cccc4c3C(=O)N(C3CCC(=O)NC3=O)C4=O)C2)ncc1Cl (stereo partly specified)", "Transcription intermediary factor 1-alpha (Homo sapiens) (UniProt O15164)", 0],
  ["N[C@@H](CC(=O)O)Cn1nnc(-c2ccc(Oc3ncc(Cl)cc3F)cc2)n1", "Transcription intermediary factor 1-alpha (Homo sapiens) (UniProt O15164)", -0.53],
  ["COc1ccc(CSc2nnc(-c3ccc4ncsc4c3)o2)cc1C(F)(F)F", "Transcription intermediary factor 1-alpha (Homo sapiens) (UniProt O15164)", -2.33],
  ["Cc1cc(=O)n(C)c2cc(N3C(=O)CC[C@H](NS(=O)(=O)CC(C)C)[C@H]3c3ccc(Cl)cc3)ccc12", "Transcription intermediary factor 1-alpha (Homo sapiens) (UniProt O15164)", -3.49],
  ["COc1ccc(CC[C@@H](OC(=O)[C@@H]2CCCCN2C(=O)[C@H](c2cc(OC)c(OC)c(OC)c2)C2CCCCC2)c2cccc(OCCN3CCOCC3)c2)cc1OC", "Transcription intermediary factor 1-alpha (Homo sapiens) (UniProt O15164)", -1.51],
  ["CC(=O)N1CCN([C@H]2CCC[C@@H](NC(=O)c3cc4c(F)ccc(C)c4[nH]3)C2)CC1", "Transcription intermediary factor 1-alpha (Homo sapiens) (UniProt O15164)", -1.5],
  ["COCCc1ccc(-c2c(C)nc3c(N4CCOCC4)ccnn23)cn1", "Transcription intermediary factor 1-alpha (Homo sapiens) (UniProt O15164)", -1.13],
  ["CN1C(=O)Cc2ccc(-c3ccc(C[C@@H](C#N)NC(=O)[C@@H]4N[C@H]5CC[C@@H]4C5)c(F)c3)cc21", "Transcription intermediary factor 1-alpha (Homo sapiens) (UniProt O15164)", 0.19],
  ["O=c1cc(C2CCNCC2)n2nc3cccc(Cl)c3c2[nH]1", "Transcription intermediary factor 1-alpha (Homo sapiens) (UniProt O15164)", 0.25],
  ["COc1ccc(Br)cc1S(=O)(=O)NC(=O)/C=C/c1cc(Cl)ccc1Cc1ccc2ccccc2c1", "Transcription intermediary factor 1-alpha (Homo sapiens) (UniProt O15164)", -0.55],
  ["CCOC(=O)c1cc2cc(-c3cc(C(=O)NCc4ccc(C(=O)O)cc4)nn3C)ccc2[nH]1", "Transcription intermediary factor 1-alpha (Homo sapiens) (UniProt O15164)", 0.44],
  ["NS(=O)(=O)c1ccc(Nc2nc(OCC3CCCCC3)c3nc[nH]c3n2)cc1", "Transcription intermediary factor 1-alpha (Homo sapiens) (UniProt O15164)", -0.84],
  ["CCCc1c(OCCCOc2ccc(OCC(=O)O)cc2)ccc(C(C)=O)c1O", "Transcription intermediary factor 1-alpha (Homo sapiens) (UniProt O15164)", -1.6],
  ["COCCOCn1c(S(C)(=O)=O)nc2c1c(=O)n(C)c(=O)n2C", "Transcription intermediary factor 1-alpha (Homo sapiens) (UniProt O15164)", 0.18]
]}

###

target: Bromodomain-containing protein 4 (Homo sapiens); conditions: Compound concentration 20.0 uM, Protein concentration 2.0 uM, Result type QC Liability
Measured ΔTm, listed per entry for reference.

{"columns": ["compound structure", "ΔTm"],
 "data": [
  ["CC(C)(C)NC(=O)c1cncn1C1CCN(c2ccc(-c3nnc(C(F)(F)F)o3)cn2)CC1", "-0.5 °C"],
  ["O=C(NCc1ccc(F)cc1)C1CCN(S(=O)(=O)c2cc(Cl)cc(Cl)c2)CC1", "-0.4 °C"],
  ["O=C(Nc1ccnc(NC(=O)C2CC2)c1)c1c(Cl)cccc1Cl", "-1.81 °C"],
  ["Cc1ncc(C(=O)Nc2cc(C(C)(C)C)on2)cc1-n1cc(-c2cnn(C)c2C)nn1", "-3.35 °C"],
  ["O=C(O)c1ccc(CN2C[C@@H]3C[C@H]2CN3Cc2ccc(Oc3ccc(-c4ncco4)cc3)cc2)cc1", "-2.1 °C"]
]}
